IC50 at 72 h: recorded values
- experiment notes: Cytotoxicity, MTT assay, normal cells
- Format: cell-based, human
- measurement context: human, MRC-5 normal lung fibroblast cells; MRC-5 normal fibroblast; 72 h
- Description: Cell line cells were obtained from the American Type Culture Collection. […] Thereafter, the survival of cells was determined by MTT assay in accordance with the protocol established by Mosmann and Ohno and Abe. […] The absorbance was measured at 570 nm using Thermo Scientific Multiskan EX plate reader. […]
Quick note: give the figure in µM, leave out the unit.

In the examples that follow, each entry is paired with its recorded IC50 at 72 h.
1) CCCCCCOc1ccc(C=C2C(=O)OC(C)(C)OC2=O)cc1OC: 144
2) CCCCCCCCOc1ccc(C=C2C(=O)OC(C)(C)OC2=O)cc1OC: 72.8

Enquiry: Entry CCCCCCCCCCOc1ccc(C=C2C(=O)OC(C)(C)OC2=O)cc1OC has what IC50 at 72 h?
Return: 74.6

* * *

- experiment notes: Cytotoxicity, MTT assay, normal cells
- Type: cell-based, human
- measurement context: human, MRC-5 normal lung fibroblast cells; MRC-5 normal fibroblast; 72 h
IC50 at 72 h: recorded values

In the examples that follow, each entry is paired with its recorded IC50 at 72 h.
1) COc1cc(C=C2C(=O)OC(C)(C)OC2=O)ccc1OCCOCCOCCO: 111 µM
2) CCC(=O)Oc1ccc(C=C2C(=O)OC(C)(C)OC2=O)cc1OC: > 200 µM
3) COc1cc(C=C2C(=O)OC(C)(C)OC2=O)cc([N+](=O)[O-])c1O: > 200 µM

Switching to the query record.
Enquiry: Entry CCCCCCCOc1ccc(C=C2C(=O)OC(C)(C)OC2=O)cc1OC has what IC50 at 72 h?
Return: 139 µM

* * *

- System: pancreatic carcinoma PaCa-2
- experiment notes: Cytotoxicity, MTT assay
- Format: cell-based
- measurement context: Homo sapiens, 72 h
IC50: recorded values
Quick note: give the figure in µM, leave out the unit.

1. CCCCCCCCOc1ccc(C=C2C(=O)OC(C)(C)OC2=O)cc1OC: 90.5
2. CCCCCCOc1ccc(C=C2C(=O)OC(C)(C)OC2=O)cc1OC: 110

Switching to the query record.
Enquiry: Entry CCCCCCCOc1ccc(C=C2C(=O)OC(C)(C)OC2=O)cc1OC has what IC50?
Return: 94.2
